Quick reference for solubility thermodynamic at 24 h among some compounds
Assay: Water solubility assay
Type: physicochemical
Conditions: 50 mM TEAA buffer, pH 7.9, aqueous buffer, thermodynamic from solid
Test Readout: solubility thermodynamic at 24 h (µg/mL)

- C=C(NC(=O)C(=C)NC(=O)c1csc(C2=N[C@@H]3c4csc(n4)[C@H]4NC(=O)c5csc(n5)[C@H]([C@](C)(O)[C@@H](C)O)NC(=O)[C@H]5CSC(=N5)/C(=C/C)NC(=O)[C@H]([C@@H](C)O)NC(=O)c5csc(n5)[C@]3(CC2)NC(=O)[C@H](C)NC(=O)C(=C)NC(=O)[C@H](C)NC(=O)[C@H]([C@@H](C)CC)N[C@@H]2C=Cc3c([C@H](C)O)cc(nc3[C@H]2O)C(=O)O[C@@H]4C)n1)C(N)=O [Thiostrepton, thiostrepton, reference compound]: 5
- C=C1NC(=O)[C@H](C)NC(=O)[C@H]([C@@H](C)CC)N[C@@H]2C=Cc3c([C@H](C)O)cc(nc3[C@H]2O)C(=O)O[C@H](C)[C@@H]2NC(=O)c3csc(n3)[C@H]([C@](C)(O)[C@@H](C)O)NC(=O)[C@H]3CSC(=N3)/C(=C/C)NC(=O)[C@H]([C@@H](C)O)NC(=O)c3csc(n3)[C@]3(CCC(c4nc(C(=O)NC(CB(O)O)C(=O)NC(CB(O)O)C(N)=O)cs4)=N[C@@H]3c3csc2n3)NC(=O)[C@H](C)NC1=O (some centres unmarked) [compound 3]: 422
